assay: total protein half-life in vivo (active degradation + dilution); higher = more stable protein; details: wild type E. coli NCM3722; growth: P-lim chemostat; doubling time 6 h
Readings of total protein half-life in vivo for the listed sequences
property: total protein half-life in vivo (h)

* MAMHLNENLDDNGEMHDINVTPFIDVMLVLLIIFMVAAPLATVDVKVNLPASTSTPQPRPEKPVYLSVKADNSMFIGNDPVTDETMITALNALTEGKKDTTIFFRADKTVDYETLMKVMDTLHQAGYLKIGLVGEETAKAK [P0ABV2] | 1.01
* MPAENIVEVHHLKKSVGQGEHELSILTGVELVVKRGETIALVGESGSGKSTLLAILAGLDDGSSGEVSLVGQPLHNMDEEARAKLRAKHVGFVFQSFMLIPTLNALENVELPALLRGESSAESRNGAKALLEQLGLGKRLDHLPAQLSGGEQQRVALARAFNGRPDVLFADEPTGNLDRQTGDKIADLLFSLNREHGTTLIMVTHDLQLAARCDRCLRLVNGQLQEEA [P0A9T8] | 5.46

* * *

assay: total protein half-life in vivo (active degradation + dilution); higher = more stable protein; conditions: E. coli NCM3722 delta-hslV; growth: N-lim chemostat; doubling time 6 h
property: total protein half-life in vivo

- MSDNAQLTGLCDRFRGFYPVVIDVETAGFNAKTDALLEIAAITLKMDEQGWLMPDTTLHFHVEPFVGANLQPEALAFNGIDPNDPDRGAVSEYEALHEIFKVVRKGIKASGCNRAIMVAHNANFDHSFMMAAAERASLKRNPFHPFATFDTAALAGLALGQTVLSKACQTAGMDFDSTQAHSALYDTERTAVLFCEIVNRWKRLGGWPLSAAEEV: 5.13 h
- MKAFDLHRMAFDKVPFDFLGEVALRSLYTFVLVFLFLKMTGRRGVRQMSLFEVLIILTLGSAAGDVAFYDDVPMVPVLIVFITLALLYRLVMWLMAHSEKLEDLLEGKPVVIIEDGELAWSKLNNSNMTEFEFFMELRLRGVEQLGQVRLAILETNGQISVYFFEDDKVKPGLLILPSDCTQRYKVVPESADYACIRCSEIIHMKAGEKQLCPRCANPEWTKASRAKRVT: 5.53 h
- MTIKNVICDIDGVLMHDNVAVPGAAEFLHGIMDKGLPLVLLTNYPSQTGQDLANRFATAGVDVPDSVFYTSAMATADFLRRQEGKKAYVVGEGALIHELYKAGFTITDVNPDFVIVGETRSYNWDMMHKAAYFVANGARFIATNPDTHGRGFYPACGALCAGIEKISGRKPFYVGKPSPWIIRAALNKMQAHSEETVIVGDNLRTDILAGFQAGLETILVLSGVSSLDDIDSMPFRPSWIYPSVAEIDVI [P0AF24]: 5.64 h

* * *

assay: total protein half-life in vivo (active degradation + dilution); higher = more stable protein; settings: E. coli NCM3722 delta-clpP; growth: N-lim chemostat; doubling time 6 h
property: total protein half-life in vivo

- MERNVTLDFVRGVAILGILLLNISAFGLPKAAYLNPAWYGAITPRDAWTWAFLDLIGQVKFLTLFALLFGAGLQMLLPRGRRWIQSRLTLLVLLGFIHGLLFWDGDILLAYGLVGLICWRLVRDAPSVKSLFNTGVMLYLVGLGVLLLLGLISDSQTSRAWTPDASAILYEKYWKLHGGVEAISNRADGVGNSLLALGAQYGWQLAGMMLIGAALMRSGWLKGQFSLRHYRRTGFVLVAIGVTINLPAIALQWQLDWAYRWCAFLLQMPRELSAPFQAIGYASLFYGFWPQLSRFKLVLAIACVGRMALTNYLLQTLICTTLFYHLGLFMHFDRLELLAFVIPVWLANILFSVIWLRYFRQGPVEWLWRQLTLRAAGPAISKTSR: 5.73 h

* * *

assay: total protein half-life in vivo (active degradation + dilution); higher = more stable protein; conditions: E. coli NCM3722 delta-smpB; growth: N-lim chemostat; doubling time 6 h
Param threshold (4 h) applies to total protein half-life in vivo; output 1 when value >= threshold, 0 when value < threshold.

* MSHVELQPGFDFQQAGKEVLAIERECLAELDQYINQNFTLACEKMFWCKGKVVVMGMGKSGHIGRKMAATFASTGTPSFFVHPGEAAHGDLGMVTPQDVVIAISNSGESSEITALIPVLKRLHVPLICITGRPESSMARAADVHLCVKVAKEACPLGLAPTSSTTATLVMGDALAVALLKARGFTAEDFALSHPGGALGRKLLLRVNDIMHTGDEIPHVKKTASLRDALLEVTRKNLGMTVICDDNMMIEGIFTDGDLRRVFDMGVDVRQLSIADVMTPGGIRVRPGILAVEALNLMQSRHITSVMVADGDHLLGVLHMHDLLRAGVV | 1
* MSKVCIIAWVYGRVQGVGFRYTTQYEAKRLGLTGYAKNLDDGSVEVVACGEEGQVEKLMQWLKSGGPRSARVERVLSEPHHPSGELTDFRIR [P0AB65] | 1
* MTIAIVIGTHGWAAEQLLKTAEMLLGEQENVGWIDFVPGENAETLIEKYNAQLAKLDTTKGVLFLVDTWGGSPFNAASRIVVDKEHYEVIAGVNIPMLVETLMARDDDPSFDELVALAVETGREGVKALKAKPVEKAAPAPAAAAPKAAPTPAKPMGPNDYMVIGLARIDDRLIHGQVATRWTKETNVSRIIVVSDEVAADTVRKTLLTQVAPPGVTAHVVDVAKMIRVYNNPKYAGERVMLLFTNPTDVERLVEGGVKITSVNVGGMAFRQGKTQVNNAVSVDEKDIEAFKKLNARGIELEVRKVSTDPKLKMMDLISKIDK | 1
* MEQLRAELSHLLGEKLSRIECVNEKADTALWALYDSQGNPMPLMARSFSTPGKARQLAWKTTMLARSGTVRMPTIYGVMTHEEHPGPDVLLLERMRGVSVEAPARTPERWEQLKDQIVEALLAWHRQDSRGCVGAVDNTQENFWPSWYRQHVEVLWTTLNQFNNTGLTMQDKRILFRTRECLPALFEGFNDNCVLIHGNFCLRSMLKDSRSDQLLAMVGPGLMLWAPREYELFRLMDNSLAEDLLWSYLQRAPVAESFIWRRWLYVLWDEVAQLVNTGRFSRRNFDLASKSLLPWLA [P0AB03] | 0
* MNTPAQLSLPLYLPDDETFASFWPGDNSSLLAALQNVLRQEHSGYIYLWAREGAGRSHLLHAACAELSQRGDAVGYVPLDKRTWFVPEVLDGMEHLSLVCIDNIECIAGDELWEMAIFDLYNRILESGKTRLLITGDRPPRQLNLGLPDLASRLDWGQIYKLQPLSDEDKLQALQLRARLRGFELPEDVGRFLLKRLDREMRTLFMTLDQLDRASITAQRKLTIPFVKEILKL | 1
* MPIRVPDELPAVNFLREENVFVMTTSRASGQEIRPLKVLILNLMPKKIETENQFLRLLSNSPLQVDIQLLRIDSRESRNTPAEHLNNFYCNFEDIQDQNFDGLIVTGAPLGLVEFNDVAYWPQIKQVLEWSKDHVTSTLFVCWAVQAALNILYGIPKQTRTEKLSGVYEHHILHPHALLTRGFDDSFLAPHSRYADFPAALIRDYTDLEILAETEEGDAYLFASKDKRIAFVTGHPEYDAQTLAQEFFRDVEAGLDPDVPYNYFPHNDPQNTPRASWRSHGNLLFTNWLNYYVYQITPYDLRHMNPTLD | 0

* * *

Readings of total protein half-life in vivo for the listed sequences
assay: total protein half-life in vivo (active degradation + dilution); higher = more stable protein; details: E. coli NCM3722 delta-clpP; growth: N-lim chemostat; doubling time 6 h
property: total protein half-life in vivo

* MRKQWLGICIAAGMLAACTSDDGQQQTVSVPQPAVCNGPIVEISGADPRFEPLNATANQDYQRDGKSYKIVQDPSRFSQAGLAAIYDAEPGSNLTASGEAFDPTQLTAAHPTLPIPSYARITNLANGRMIVVRINDRGPYGNDRVISLSRAAADRLNTSNNTKVRIDPIIVAQDGSLSGPGMACTTVAKQTYALPAPPDLSGGAGTSSVSGPQGDILPVSNSTLKSEDPTGAPVTSSGFLGAPTTLAPGVLEGSEPTPAPQPVVTAPSTTPATSPAMVTPQAVSQSASGNFMVQVGAVSDQARAQQYQQQLGQKFGVPGRVTQNGAVWRIQLGPFASKAEASTLQQRLQTEAQLQSFITTAQ | 5.78 h
* MSIKTIKYFSTIIVAVVAVLAGWWLWNYYMQSPWTRDGKIRAEQVSITPQVSGRIVELNIKDNQLVNAGDLLLTIDKTPFQIAELNAQAQLAKAQSDLAKANNEANRRRHLSQNFISAEELDTANLNVKAMQASVDAAQATLKQAQWQLAQTEIRAPVSGWVTNLTTRIGDYADTGKPLFALVDSHSFYVIGYFEETKLRHIREGAPAQITLYSDNKTLQGHVSSIGRAIYDQSVESDSSLIPDVKPNVPWVRLAQRVPVRFALDKVPGDVTLVSGTTCSIAVGQ | 4.89 h
* MKICLIDETGTGDGALSVLAARWGLEHDEDNLMALVLTPEHLELRKRDEPKLGGIFVDFVGGAMAHRRKFGGGRGEAVAKAVGIKGDYLPDVVDATAGLGRDAFVLASVGCRVRMLERNPVVAALLDDGLARGYADAEIGGWLQERLQLIHASSLTALTDITPRPQVVYLDPMFPHKQKSALVKKEMRVFQSLVGPDLDADGLLEPARLLATKRVVVKRPDYAPPLANVATPNAVVTKGHRFDIYAGTPV | 5.05 h
